# TARGET SYSTEM: VHL Elongin B/C complex (Homo sapiens (Human), UniProt P40337)
# Sequence (P40337 whole entry, looked up): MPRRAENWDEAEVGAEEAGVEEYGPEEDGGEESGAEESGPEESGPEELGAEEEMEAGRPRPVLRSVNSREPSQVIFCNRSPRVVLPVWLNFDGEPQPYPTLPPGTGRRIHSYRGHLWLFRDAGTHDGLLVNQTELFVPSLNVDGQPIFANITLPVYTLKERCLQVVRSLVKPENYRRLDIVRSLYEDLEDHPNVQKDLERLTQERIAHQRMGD
# Sequence (Q15370 whole entry partner, looked up): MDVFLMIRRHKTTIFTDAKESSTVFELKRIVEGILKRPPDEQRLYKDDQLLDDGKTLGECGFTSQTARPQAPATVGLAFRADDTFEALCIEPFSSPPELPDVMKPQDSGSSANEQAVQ
# Sequence (Q15369 whole entry partner, looked up): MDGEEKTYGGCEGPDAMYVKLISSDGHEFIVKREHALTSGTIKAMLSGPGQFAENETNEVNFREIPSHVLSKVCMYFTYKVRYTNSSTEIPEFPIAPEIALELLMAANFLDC
# PROTOCOL DETAILS: Fluorescence Polarization (FP) VHL Binding Assay
# MEASUREMENT PARAMETERS: VHL binding, FP assay; geometric mean where more than one measurement
MEASUREMENT LABEL: IC50 (µM)
Value expressed in µM; do not type the unit.

Would you kindly share the measured IC50 for CCN1N=C([C@@H]2C[C@@H](O)CN2C(=O)C(c2cc(C)no2)C(C)C)NC1(C)C (single isomer, unassigned) [Example 115.2] ?
40.7

Would you kindly share the measured IC50 for Cc1ncsc1-c1ccc([C@]2(C)NC(C3C[C@@H](O)CN3C(=O)[C@@H](NC(=O)CCCCCCCCCCNC(=O)c3cc4c(cc3CS(C)(=O)=O)-c3cn(C)c(=O)c5[nH]cc(c35)CN4c3ncc(F)cc3F)C(C)(C)C)=NC2=O)cc1 (single isomer, unassigned) [Example 1005.1] ?
255

Would you kindly share the measured IC50 for Cc1cc(C(C(=O)N2C[C@H](O)CC2C2=NC(=O)C(C)(C)N2)C(C)C)on1 (single isomer, unassigned) [Example 107.2] ?
24.1

Would you kindly share the measured IC50 for Cc1cc(C(C(=O)N2C[C@H](O)CC2C2=NC(=O)C(C)(c3ccc(-c4scnc4C)cc3)N2)C(C)C)on1 (single isomer, unassigned) [Example 104.3] ?
230

----------
# TARGET SYSTEM: VHL co-expressed with Elongins B and C (Homo sapiens (Human), UniProt P40337)
# PROTOCOL DETAILS: Surface Plasmon Resonance Assay
# Type: binding
# MEASUREMENT PARAMETERS: SPR measured VHL affinity; geometric mean where more than one measurement
Would you mind telling me the reported Kd of each entry?
Value expressed in µM; do not type the unit.

Would you kindly share the measured Kd for Cc1ncsc1-c1ccc([C@]2(C)NC(C3C[C@@H](O)CN3C(=O)C(c3cnn(C)c3)C(C)C)=NC2=O)cc1 (single isomer, unassigned) [Example 110.1] ?
7.42

Would you kindly share the measured Kd for Cc1noc(C(C(=O)N2C[C@H](O)CC2C2=NC(=O)[C@](C)(c3ccc(-c4scnc4C)cc3)N2)C(C)C)n1 (single isomer, unassigned) [Example 117.4] ?
150

Would you kindly share the measured Kd for CC(=O)N1CCC[C@H]1C(=O)N1C[C@H](O)CC1C1=NC(=O)[C@](C)(c2ccc(-c3scnc3C)cc2)N1 (single isomer, unassigned) [Example 121.1] ?
29.2

----------
# TARGET SYSTEM: VHL Elongin B/C complex (Homo sapiens (Human))
# PROTOCOL DETAILS: Fluorescence Polarization (FP) VHL Binding Assay
# MEASUREMENT PARAMETERS: VHL binding, FP assay; geometric mean where more than one measurement
Would you mind telling me the reported IC50 of each entry?

Would you kindly share the measured IC50 for Cc1cc(C(C(=O)N2C[C@H](O)CC2C2=NC(=O)[C@](C)(c3ccc(-c4scnc4C)cc3)N2)C(C)C)sn1 (single isomer, unassigned) [Example 119.3] ?
72.4 µM

Would you kindly share the measured IC50 for Cc1cc(C(C(=O)N2C[C@H](O)CC2C2=NC(=O)[C@](C)(c3ccc(-c4scnc4C)cc3)N2)C(C)C)sn1 (single isomer, unassigned) [Example 119.1] ?
≥ 400 µM

Would you kindly share the measured IC50 for Cc1ncsc1-c1ccc([C@]2(C)NC(C3C[C@@H](O)CN3C(=O)C(c3cn(C)nn3)C(C)C)=NC2=O)cc1 (single isomer, unassigned) [Example 118.3] ?
150 µM

Would you kindly share the measured IC50 for Cc1cc([C@H](C(=O)N2C[C@H](O)C[C@H]2C2=NO[C@@](c3ccccc3)(C(F)(F)F)N2)C(C)C)on1 (mixture of isomers) [Example 114.3] ?
47 µM

Would you kindly share the measured IC50 for Cc1cc(C(C(=O)N2C[C@H](O)CC2C2=NC(=O)C(C)(C)N2)C(C)C)on1 (single isomer, unassigned) [Example 107.3] ?
> 50 µM

Would you kindly share the measured IC50 for Cc1ncsc1-c1ccc([C@]2(C)NC(C3C[C@@H](O)CN3C(=O)C(c3cnn(C)c3)C(C)C)=NC2=O)cc1 (single isomer, unassigned) [Example 110.2] ?
≥ 400 µM

Would you kindly share the measured IC50 for Cc1cc(C(C(=O)N2C[C@H](O)CC2C2=NC(=O)C(C)(c3ccc(-c4cccnc4C)cc3)N2)C(C)C)on1 (single isomer, unassigned) [Example 106.2] ?
> 400 µM

Would you kindly share the measured IC50 for Cc1cc(C(C(=O)N2C[C@H](O)C[C@H]2C2=NN(CC(F)(F)F)C(C)(C)N2)C(C)C)on1 (single isomer, unassigned) [Example 134.1] ?
≥ 400 µM

Would you kindly share the measured IC50 for CC(=O)N1CCCCC1C(=O)N1C[C@H](O)CC1C1=NC(=O)[C@](C)(c2ccc(-c3scnc3C)cc2)N1 (single isomer, unassigned) [Example 124.4] ?
≥ 400 µM

Would you kindly share the measured IC50 for Cc1ncsc1-c1ccc([C@]2(C)NC(C3C[C@@H](O)CN3C(=O)[C@H](C(C)C)N3Cc4ccccc4C3=O)=NC2=O)cc1 (single isomer, unassigned) [Example 123.1] ?
≥ 400 µM

Would you kindly share the measured IC50 for CC(=O)N[C@H](C(=O)N1C[C@H](O)CC1C1=NC(=O)C(C)(c2ccc(-c3scnc3C)cc2)N1)C(C)(C)C (single isomer, unassigned) [Example 102.3] ?
43.3 µM

Data credit: patent US11242344B2
